# Method summary: coupled detection enzyme interference, dose response, artefact control for MgcRacGAP inhibitor project, biochemical, coupled enzyme counter-screen (AID 624351);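 note: signal is the ADP detection kit reading of free GDP without any GAP enzyme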
# Recorded conditions: ADP Hunter coupled enzyme counter-screen, fluorescence, no MgcRacGAP; series mostly up to 80 µM
Among all 2,400 compounds or so, about 1,400 (58%) were called active. So high a share suggests a set chosen from earlier hits. The list shows a part of the results.
Recorded metric: IC50

Below: 10 compounds and their reported IC50.
Compound: COc1ccc(C2NC(=O)C(C#N)=C(S)N2c2ccc(C)cc2)cc1OC (centres undefined)
IC50: inactive
//
Compound: Nc1[nH]c2cc([N+](=O)[O-])ccc2c1-c1ccccn1
IC50: 75.4 µM (active)
//
Compound: O=c1/c(=C/c2ccc(O)cc2)sc2n1CCCN=2
IC50: 21.7 µM (active)
//
Compound: CN=c1scc(C)n1/N=C/c1ccc(O)cc1O
IC50: 10.1 µM (active)
//
Compound: O=[N+]([O-])c1ccc(Oc2cccc3cccnc23)c([N+](=O)[O-])c1
IC50: inactive
//
Compound: C=CCn1c(SCC(=O)Nc2ccc(N(C)C)cc2)nnc1-c1cccc(C)c1
IC50: 58.8 µM (active)
//
Compound: CCOC(=O)C1(C)C=C(Nc2ccc(O)cc2)C(=O)N1c1ccc(O)cc1 (centres undefined)
IC50: 19.6 µM (active)
//
Compound: CC(NCc1cccc(S(=O)(=O)N(C)C)c1)c1ccc(F)cc1 (centres undefined)
IC50: inactive
//
Compound: N#CC1=C(N)NC(=S)C(C(N)=O)C1c1ccc([N+](=O)[O-])cc1 (centres undefined)
IC50: inactive
//
Compound: COc1cc(CCNC2=CC(=O)c3ncccc3C2=O)ccc1O
IC50: 70.9 µM (active)

// next item, IC50 requested
Request: Which measured IC50 value corresponds to N#CC(C#N)=C1C=CC=CN1/C(=C\c1ccco1)C(=O)c1ccc(Br)cc1 ?
Result: inactive
